# Subject of test: P2Y1 receptor (Homo sapiens)
# Construct: expressed in transfected cells
# Sequence (P47900 whole entry): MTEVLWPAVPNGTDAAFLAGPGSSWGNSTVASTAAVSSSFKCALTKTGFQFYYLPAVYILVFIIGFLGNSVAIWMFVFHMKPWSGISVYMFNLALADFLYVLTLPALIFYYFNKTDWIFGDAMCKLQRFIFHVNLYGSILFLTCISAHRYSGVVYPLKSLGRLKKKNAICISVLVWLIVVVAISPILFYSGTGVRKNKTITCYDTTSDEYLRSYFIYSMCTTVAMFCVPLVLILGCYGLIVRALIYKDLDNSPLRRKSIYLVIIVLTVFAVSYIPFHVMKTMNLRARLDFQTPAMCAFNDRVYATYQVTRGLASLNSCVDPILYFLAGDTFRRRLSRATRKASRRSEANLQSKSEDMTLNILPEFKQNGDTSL
# Protocol: P2Y1 IP1 accumulation HTRF assay, antagonism of agonist MRS2365 in stably transfected cells
# Format: cell-based
# Test settings: Example 2 table; as for example 1
Lab note: compare IC50 with 40 nM, writing Fulfilled if less and Not fulfilled if equal or more.

Solved entries:
# Molecule, Class label
measured = [
    ("O=C(Nc1ccc(OC(F)(F)F)cc1)Nc1cccnc1Oc1ccccc1C1(C(F)(F)F)CCO1 (stereo not shown)", "Not fulfilled"),
    ("Cc1ccc(NC(=O)Nc2ccc(OC(F)(F)F)cc2F)c(Oc2ccccc2[C@@]2(C(F)(F)F)CCO2)n1 [drawing 319]", "Fulfilled"),
    ("O=C(Nc1ccc(OC(F)(F)F)cc1)Nc1cccnc1Oc1ccccc1[C@@]1(C(F)(F)F)CCO1 [drawing 315]", "Not fulfilled"),
    ("CC1(C)CN(c2ccccc2NC(=O)Nc2ccc(OC(F)(F)F)cc2)c2c(O)ccc(-c3ccc(Cl)cc3)c21 [RS 1, reference compound]", "Fulfilled"),
]

Then there is this molecule:
[in] Below 40 nM on IC50? Entry O=C(Nc1ccc(OC(F)(F)F)cc1)Nc1cccnc1Oc1ccccc1[C@]1(C(F)(F)F)CCO1 [drawing 316]
[out] Not fulfilled
